# test system: Lysine-specific demethylase 5B (Homo sapiens)
# protocol description: Primary screen for KDM5B Histone Demethylases FDH-coupled qHTS; further: nearly all actives have a fitted effect of over 70% in size; further: potency means the concentration at half of the fitted maximal effect
# settings: FDH-coupled NADH fluorescence; series mostly up to 57.7 µM
Out of some 220,000 compounds screened, about 5,700 (2.6%) were called active. Another 18% or so got no clear call; they are omitted. The sample holds actives, similar compounds and a random draw of the others, so the mix is not that of the screen.

- compound: "O=C(NC1CCCCC1)c1cc(C2CC2)on1"
  Potency: "inactive"
- compound: "O=C(CN1CCCCCC1)Nc1ccc(Cl)cc1F"
  Potency: "inactive"
- compound: "O=C(Cn1c(=O)c2c(ncn2C2CCCC2)n(Cc2ccccc2)c1=O)NC1CCS(=O)(=O)C1 (stereo unspecified)"
  Potency: "inactive"
- compound: "CN(C)C(=O)CN1C(=O)c2ccccc2C1c1cn(C)c2ccccc12 (stereo unspecified)"
  Potency: "inactive"
- compound: "N#CCCN1CCN(C(=O)c2cn3ccnc(-c4ccccc4)c3n2)CC1"
  Potency: "inactive"
- compound: "CCOC(=O)C1CCN(CCC(=O)Nc2cc(OC)cc(OC)c2)CC1"
  Potency: "inactive"
- compound: "COc1ccccc1OCCNC(=O)c1cn2ccnc(-c3ccc(C)cc3)c2n1"
  Potency: "28.2 µM (active)"
- compound: "O=C(Cn1nc2c(cc1=O)CCCC2)Nc1cc(C(F)(F)F)ccc1Cl"
  Potency: "inactive"
- compound: "Cc1cn2nc(C(=O)NC3CCCC3)cc2c(N2CCSCC2)n1"
  Potency: "28.2 µM (active)"
- compound: "N#CCCN1CCN(C(=O)c2cn3ccnc(-c4ccc(F)cc4)c3n2)CC1"
  Potency: "inactive"
- compound: "COc1ccc(C(C)=O)cc1CSCc1coc(-c2ccc(C)cc2)n1"
  Potency: "inactive"

---

# test system: Lysine-specific demethylase 5B (Homo sapiens) (UniProt Q9UGL1)
# Sequence (Q9UGL1 whole entry, looked up): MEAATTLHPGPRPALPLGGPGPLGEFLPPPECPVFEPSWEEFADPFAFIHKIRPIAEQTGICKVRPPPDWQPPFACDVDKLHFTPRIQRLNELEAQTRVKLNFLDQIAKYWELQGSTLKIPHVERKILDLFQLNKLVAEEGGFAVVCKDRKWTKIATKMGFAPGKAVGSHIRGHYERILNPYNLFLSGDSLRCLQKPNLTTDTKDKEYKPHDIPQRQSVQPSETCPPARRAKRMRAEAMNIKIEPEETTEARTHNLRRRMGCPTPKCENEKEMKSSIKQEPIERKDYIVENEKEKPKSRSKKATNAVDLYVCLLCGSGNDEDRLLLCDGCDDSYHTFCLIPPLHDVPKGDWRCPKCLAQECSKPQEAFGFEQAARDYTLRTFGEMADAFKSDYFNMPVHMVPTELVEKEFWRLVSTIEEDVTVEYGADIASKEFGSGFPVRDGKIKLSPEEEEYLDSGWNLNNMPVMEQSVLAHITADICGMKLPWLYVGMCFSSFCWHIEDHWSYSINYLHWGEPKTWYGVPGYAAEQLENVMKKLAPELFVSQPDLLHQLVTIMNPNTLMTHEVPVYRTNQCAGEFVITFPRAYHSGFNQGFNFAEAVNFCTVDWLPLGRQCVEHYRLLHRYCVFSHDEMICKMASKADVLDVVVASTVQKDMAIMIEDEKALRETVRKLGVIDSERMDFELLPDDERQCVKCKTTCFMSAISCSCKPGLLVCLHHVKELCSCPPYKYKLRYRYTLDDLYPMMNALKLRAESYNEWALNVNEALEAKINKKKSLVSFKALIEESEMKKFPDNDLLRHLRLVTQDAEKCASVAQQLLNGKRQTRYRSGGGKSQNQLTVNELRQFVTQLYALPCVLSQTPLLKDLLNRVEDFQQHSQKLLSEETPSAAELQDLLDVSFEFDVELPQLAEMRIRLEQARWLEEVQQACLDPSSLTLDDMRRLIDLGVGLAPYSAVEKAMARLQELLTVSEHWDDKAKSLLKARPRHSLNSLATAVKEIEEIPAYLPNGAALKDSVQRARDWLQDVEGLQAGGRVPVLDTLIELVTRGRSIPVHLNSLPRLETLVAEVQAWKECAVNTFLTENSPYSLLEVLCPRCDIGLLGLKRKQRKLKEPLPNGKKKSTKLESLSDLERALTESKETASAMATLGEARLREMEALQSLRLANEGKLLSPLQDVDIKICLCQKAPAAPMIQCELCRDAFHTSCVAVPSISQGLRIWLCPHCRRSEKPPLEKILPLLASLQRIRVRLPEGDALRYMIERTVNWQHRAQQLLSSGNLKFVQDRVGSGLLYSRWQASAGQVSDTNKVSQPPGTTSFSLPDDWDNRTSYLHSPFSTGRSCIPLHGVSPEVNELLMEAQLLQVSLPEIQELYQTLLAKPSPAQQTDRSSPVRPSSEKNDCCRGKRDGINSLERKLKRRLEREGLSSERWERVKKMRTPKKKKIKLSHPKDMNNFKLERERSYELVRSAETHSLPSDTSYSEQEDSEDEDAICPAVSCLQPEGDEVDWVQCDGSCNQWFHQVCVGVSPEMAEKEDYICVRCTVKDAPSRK
# protocol description: Primary screen for KDM5B Histone Demethylases FDH-coupled qHTS; further: nearly all actives have a fitted effect of over 70% in size
# settings: FDH-coupled NADH fluorescence; series mostly up to 57.7 µM
In all, about 220,000 compounds went through this assay and about 5,700 (2.6%) were called active. Inconclusive results (about 18%) are left out. Calls come from the whole dose curve; as a rule, active = well fitted inhibition curve with a large enough effect; inconclusive = small, poorly fitted or top-dose-only effect; inactive = no such curve, though single readings can be large or run the other way. This is one part of a sample in which actives are shown more often than they occur.
Labels: active, inactive

- molecule: "CC(C)NC(=O)NCC1Cn2cccc2C(=O)N1Cc1ccccc1 (centres undefined)"
  class: "inactive"
- molecule: "NC(=O)Cn1ccc2cc(OCC3CCN(C(=O)C4CCCC4)CC3)cnc21"
  class: "active"
- molecule: "Cc1cc(C)c(CNC(=O)c2nc(-c3cccc(CO)c3)cc3c2ccn3C)c(=O)[nH]1"
  class: "active"
- molecule: "CCOc1cccc(CN2CCC3(CC2)CN(C)CC3COC)c1 (centres undefined)"
  class: "active"
- molecule: "COc1ccc(Nc2cc3c(nc2-c2ccccc2)nc(C(=O)NCCN(C)C)n3C)cn1"
  class: "active"
- molecule: "O=C(c1ccccc1)c1ccc(C2CC2)cc1"
  class: "inactive"
- molecule: "CN(C)Cc1cccc(-c2cc(-c3ccncc3)c3cncn3c2)c1"
  class: "active"
- molecule: "CN1C[C@@H](NC(=O)c2ccccc2)C[C@H]1c1nc(-c2ccccc2)no1"
  class: "inactive"
- molecule: "CCCCN1C(=O)NC(c2ccc(OC)cc2)C2=C1COC2=O (centres undefined)"
  class: "inactive"
- molecule: "O=C(Nc1ccc2oc(-c3cccc(Cl)c3)nc2c1)c1ccc(F)cc1"
  class: "inactive"
- molecule: "COc1ccc(CN2CCn3c(nn(-c4ccncc4)c3=O)C2)cc1"
  class: "inactive"
- molecule: "CCn1ccc2cc(S(=O)(=O)N3CCC(C(=O)N4CCN(C)CC4)CC3)ccc21"
  class: "inactive"
- molecule: "O=C(NCC1Cn2cccc2C(=O)N1Cc1ccccc1)c1ccco1 (centres undefined)"
  class: "inactive"
- molecule: "CCc1c(C(=O)Nc2ccc3nc(C)sc3c2)cnn1-c1ccc(OC)nn1"
  class: "inactive"
- molecule: "COCCn1c(-c2cccc(OC)c2)cnc1NC(=O)NCCc1ccccc1"
  class: "inactive"
- molecule: "O=c1[nH]c(C2CCCN(Cc3ccc(-c4ccsc4)cc3)C2)nc2ccc(F)cc12 (centres undefined)"
  class: "active"
- molecule: "COc1cccc(-c2ccnc3nc(Cc4cc(F)cc(F)c4)nn23)c1"
  class: "active"
- molecule: "Cc1noc(C)c1-c1cc(-c2cncnc2)cn2cncc12"
  class: "inactive"
- molecule: "c1coc(-c2ccnc3nc(C4CC4)nn23)c1"
  class: "active"
- molecule: "O=C(Cc1cccc(F)c1)NC1CCC(c2ccccc2)CC1 (centres undefined)"
  class: "inactive"
- molecule: "O=C(NCC1Cn2cccc2CN1Cc1ccccc1)c1ccco1 (centres undefined)"
  class: "active"
- molecule: "O=S(=O)(CCSc1nnc(-c2ccccc2)o1)c1ccc(Br)cc1"
  class: "inactive"
- molecule: "CC(C)N1C(=O)C2(CCCC2)C1C(=O)Nc1ccc2c(c1)N(C)CCC2 (centres undefined)"
  class: "active"
- molecule: "COc1cccc(C2Cn3nnc(-c4nc(-c5ccccc5F)no4)c3CO2)c1 (centres undefined)"
  class: "inactive"
- molecule: "C/C(=N/NC(=S)NCc1ccccc1)c1cccc(C(F)(F)F)c1"
  class: "inactive"
- molecule: "CC(C)CNC(=O)NCC1Cn2cccc2C(=O)N1Cc1ccccc1 (centres undefined)"
  class: "inactive"
- molecule: "O=C(O)CCn1ncc2cc(OC3CCN(C(=O)C4CCCC4)CC3)ccc21"
  class: "inactive"
- molecule: "Cn1c(=O)c2c(nc(NCc3cccs3)n2Cc2ccc(F)cc2)n(C)c1=O"
  class: "inactive"
- molecule: "Fc1ccc(Nc2nc(-c3ccccc3F)no2)cc1"
  class: "inactive"
- molecule: "COc1cccc(CN2CCOC3CCN(C(=O)c4cccnc4)CC3C2=O)c1 (centres undefined)"
  class: "inactive"
- molecule: "CC(C)c1ccc(/C=C/C(=O)NCCCN2CCOCC2)cc1"
  class: "inactive"
- molecule: "Cn1cccc1CN1CCn2c(nn(-c3cccc(Cl)c3)c2=O)C1"
  class: "active"
- molecule: "CN1C[C@@H](NC(=O)c2ccc(C(C)(C)C)cc2)C[C@H]1c1nc(-c2ccc3ccccc3c2)no1"
  class: "active"
- molecule: "O=C(c1ccc(C(F)(F)F)cc1)N1CCn2c(nn(-c3cccc(Cl)c3)c2=O)C1"
  class: "inactive"
- molecule: "O=C(NCC1CC1)c1ccc(F)cc1"
  class: "inactive"
- molecule: "COc1ccc(Nc2cc(Cl)ccc2C(=O)O)cn1"
  class: "inactive"
- molecule: "Cc1ccc2c(c1)-c1c(cnn1CC(=O)N(C)c1ccccc1Cl)CO2"
  class: "inactive"
- molecule: "O=C(O)COc1ccc2c(=O)c(Oc3ccc(Cl)cc3)coc2c1"
  class: "inactive"
- molecule: "CN(C)CCNC(=O)c1nc2nc(-c3ccccc3)c(-c3cccc(F)c3)cc2n1C"
  class: "inactive"
- molecule: "CCc1nn(C(C)C(=O)NCc2ccccc2Cl)c(=O)c2cc3occc3n12 (centres undefined)"
  class: "inactive"
- molecule: "O=C(/C=C/c1ccc(F)cc1)NNC(=O)c1ccc(NC(=O)C2CCCCC2)cc1"
  class: "inactive"
- molecule: "Cc1ccc(C)c(NC(=O)C(c2ccccc2)n2cnc3c2c(=O)n(C)c(=O)n3C)c1 (centres undefined)"
  class: "inactive"
- molecule: "COc1ccc(-c2ccnc3nc(CC(C)C)nn23)c(F)c1"
  class: "active"
- molecule: "O=c1[nH]c(C2CCN(Cc3ccccc3)CC2)nc2ccc(F)cc12"
  class: "inactive"

---

# test system: Lysine-specific demethylase 5B (Homo sapiens) (UniProt Q9UGL1)
# protocol description: Primary screen for KDM5B Histone Demethylases FDH-coupled qHTS; further: nearly all actives have a fitted effect of over 70% in size
# settings: FDH-coupled NADH fluorescence (FDH is formaldehyde dehydrogenase); series mostly up to 57.7 µM
In all, about 220,000 compounds went through this assay and about 5,700 (2.6%) were called active. Inconclusive results (about 18%) are left out. Calls follow the shape of the dose curve; as a rule, active = well fitted inhibition curve with a large enough effect; inconclusive = small, poorly fitted or top-dose-only effect; inactive = no such curve, though single readings can be large or run the other way. The sample as a whole holds a higher share of actives than the screen did.
Outcomes: T = active, F = inactive

- compound: "Cn1ccc2cc(S(=O)(=O)N3CCC(C(=O)NCCN4CCCC4)CC3)ccc21"
  class: "F"
- compound: "CC(=O)NC1(C)CCN(Cc2cnc(-c3ccc4c(ccn4C)c3)s2)CC1"
  class: "T"
- compound: "CC(c1nc(-c2cccs2)no1)N(C)Cc1ccc(F)cc1F (stereo not drawn)"
  class: "F"
- compound: "CC(O)CNC(=O)c1ccc(-c2ncc3cnc(C4=CCOCC4)cn23)cc1 (stereo not drawn)"
  class: "T"
- compound: "COc1ccc(CNC(=O)C2CCCC2)cc1"
  class: "F"
- compound: "O=c1oc2ccc(F)cc2cc1S(=O)(=O)N1CCCCCC1"
  class: "F"
- compound: "Cc1ccccc1-c1ccc(C(=O)NCCCn2ccnc2C(C)C)cn1"
  class: "F"
- compound: "CCCCCCCCOc1ccc(C(=O)c2ccccc2O)c(O)c1"
  class: "F"
- compound: "Cc1nnc(-c2cc(-c3ccccc3)ccn2)n1CCc1ccccc1"
  class: "F"
- compound: "N#Cc1c(N)n[nH]c1CCCNc1nc(-c2ccncc2)nc2ccccc12"
  class: "F"
- compound: "Cc1cc(=O)oc2cc(OCC(=O)NCc3cccs3)c(Cl)cc12"
  class: "F"
- compound: "Cc1ccc(CNC(=O)[C@H](C)NC(=O)[C@@H]2Cc3ccccc3CN2)cc1"
  class: "F"
- compound: "O=C(CCNC(=O)c1cnccn1)Nc1ccccc1Cc1ccccc1"
  class: "F"
- compound: "COc1ccc(C(=O)OCC(=O)NCC(F)(F)F)cc1"
  class: "F"
- compound: "CN(C)C(=O)c1cccc(NCC(=O)NC(=O)NCc2ccccc2)c1"
  class: "F"
- compound: "COc1ccc2c(c1)OCC(C(=O)NCc1cc3cc(OC)ccc3[nH]1)C2 (stereo not drawn)"
  class: "T"
- compound: "COc1cc(CNCC(O)c2ccccc2)ccc1Oc1nnnn1-c1ccccc1 (stereo not drawn)"
  class: "F"
- compound: "CC(=O)Nc1cccc(-c2n[nH]c3c2CC(=O)N(Cc2ccccc2F)C3)c1"
  class: "F"
- compound: "CC(C)c1nccn1CCCNc1nc(-c2ccncc2)nc2c1cnn2C"
  class: "T"
- compound: "Cn1cnnc1C1CCCN(S(=O)(=O)N2CCCCC2)C1 (stereo not drawn)"
  class: "F"
- compound: "CC(=O)N1CCN(C(=O)c2ccc3c(ccn3C)c2)CC1"
  class: "F"
- compound: "CCOc1cc(C)c(Cl)cc1S(=O)(=O)N1CCCCC1C (stereo not drawn)"
  class: "F"
- compound: "COc1ccc2cc(C(=O)NCC3CCCO3)[nH]c2c1 (stereo not drawn)"
  class: "F"

This collection of values is drawn from PubChem BioAssay AID1347165.
